Numbers sourced from PubChem BioAssay AID1159580.

- experiment summary: chemical genetic growth profiling, strain panel (AID 1159580);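 note: tested at 20 µM; growth read once vehicle control cultures reached saturation at 30 °C; 1 = growth at the plate median or of vehicle wells; lower values mean less growth of the strain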
- test settings: S. cerevisiae deletion strains, growth OD, locus YAL040C, strain CLN3
The whole screen tested about 5,500 compounds, of which about 2,000 (36%) were called active. Not shown: some 18% with an inconclusive outcome. Cut-off read from the data, not from the text of the source: active = normalized growth mostly below about 0.91 (no sharp cut-off); inconclusive = no clear call, values can overlap the other calls; inactive = mostly above about 0.92. The list shows a part of the results.
Returns: one label drawn from YES = active, NO = inactive

Would you please look over these solved cases?
{"molecule": "Brc1c(NC2=NCCN2)ccc2nccnc12", "discrete label": "NO"}
{"molecule": "c1ccc2c(c1)OCC(C1=NCCN1)O2 (stereo unspecified)", "discrete label": "NO"}
{"molecule": "COCC(=O)O[C@]1(CCN(C)CCCc2nc3ccccc3[nH]2)CCc2cc(F)ccc2[C@@H]1C(C)C", "discrete label": "NO"}
{"molecule": "N#Cc1c(-c2ccccc2)no[n+]1[O-]", "discrete label": "YES"}
{"molecule": "c1ccc2c(N3CCNCC3)cccc2c1", "discrete label": "NO"}

Here's the next entry for you.
Exercise: Could you check what this test reported for "C=CCN1CC[C@]23c4c5ccc(O)c4O[C@@H]2/C(=N\N=C2\CC[C@@]4(O)C6Cc7ccc(O)c8c7[C@@]4(CCN6CC=C)[C@@H]2O8)CC[C@@]3(O)C1C5" ?
Key: NO

---

- experiment summary: chemical genetic growth profiling, strain panel (AID 1159580)
- test settings: S. cerevisiae deletion strains, growth OD, locus YCL061C, strain MRC1 (second series), active compounds read low
Among all 5,500 compounds or so, about 2,000 (36%) were called active. About 18% were inconclusive and are not listed. The list shows a part of the results.
measurement type: normalized growth

Here's what some known entries look like.
{"compound": "CCN1C(=O)C=CC1=O", "meas value": "1.01 (inactive)"}
{"compound": "COC(=O)C(C)(N)Cc1ccc(O)cc1 (stereo unspecified)", "meas value": "1.01 (inactive)"}
{"compound": "COc1ccccc1N1CCN(CCCNc2c(C)c(=O)n(C)c(=O)n2C)CC1", "meas value": "0.998 (inactive)"}
{"compound": "C=CCN1CC[C@]23c4c5ccc(O)c4O[C@H]2/C(=N\\NC(=O)c2ccccc2)CC[C@@]3(O)[C@H]1C5", "meas value": "0.987 (inactive)"}
{"compound": "O=c1cc(N2CCOCC2)oc2c(-c3ccccc3)cccc12", "meas value": "1.01 (inactive)"}

For each entry beneath this line, provide reported normalized growth.
1. CC1CN(S(=O)(=O)c2cccc3cnccc23)CCN1 (stereo unspecified)
2. O=C(O)CP(=O)(O)O

Key:
1.01 (inactive)
1 (inactive)

For each entry beneath this line, provide reported normalized growth.
1. COc1cccc(-c2cc(=O)c3ccccc3o2)c1N
2. CC(C)COC(=O)OCN1C(=O)CN(CCN2CC(=O)N(COC(=O)OCC(C)C)C(=O)C2)CC1=O
3. CC(C)CC(NP(=O)(O)O[C@@H]1O[C@@H](C)[C@H](O)[C@@H](O)[C@H]1O)C(=O)NC(Cc1c[nH]c2ccccc12)C(=O)O (stereo partly specified)
4. CC(COc1ccccc1)N(CCCl)Cc1ccccc1 (stereo unspecified)

Key:
1: 1 (inactive); 2: 1.01 (inactive); 3: 1.01 (inactive); 4: 0.956 (inactive)

---

- experiment summary: chemical genetic growth profiling, strain panel (AID 1159580)
- test settings: S. cerevisiae deletion strains, growth OD, locus YFL029C, strain CAK1, active compounds read low
In all, about 5,500 compounds went through this assay and about 2,000 (36%) were called active. Inconclusive results (about 18%) are left out. The list shows a part of the results.
measurement type: normalized growth
Numbers only.

{"compound": "CCCCCCCC1CCC/C1=N/OC(=O)c1cccs1 (stereo unspecified)", "meas value": 1.01}

For each entry beneath this line, provide reported normalized growth.
1. N#CC1=C(N)C(C#N)(C#N)C2(CCCCC2)C2CCCC=C12 (stereo unspecified)
2. CSc1cccc(N2C(=O)CC(c3c(Cl)cccc3Cl)CC2=O)c1
3. O=C1/C(=C/c2c(F)cccc2Cl)Cc2ccccc21
4. O=C(CO/N=C\c1ccc(Cl)cc1Cl)NNC(=S)Nc1cc(Cl)ccc1Cl

Key:
0.973
0.986
0.961
1.01

Exercise: Look up normalized growth of "Cc1nc(C(F)(F)F)c(C(=O)O/N=C(/N)c2ccc(Cl)cc2)s1" and report it.
Key: 0.983

---

- experiment summary: chemical genetic growth profiling, strain panel (AID 1159580)
- test settings: S. cerevisiae deletion strains, growth OD, locus YDR195W, strain ref2
In all, about 5,500 compounds went through this assay and about 2,000 (36%) were called active. Roughly 18% stayed inconclusive and do not appear here. Rule as the data show it: active = normalized growth mostly below about 0.91 (no sharp cut-off); inconclusive = no clear call, values can overlap the other calls; inactive = mostly above about 0.92. The list shows a part of the results.
Returns: one label drawn from y for active, n for inactive

Would you please look over these solved cases?
{"molecule": "CCCN(CCC)CCc1cccc2c1CC(=O)N2", "discrete label": "n"}
{"molecule": "CC1(C)O[C@@H]2CC3C4CCC5=CC(=O)C=C[C@]5(C)C4[C@@H](O)C[C@]3(C)[C@]2(C(=O)CO)O1 (some centres not stated)", "discrete label": "n"}
{"molecule": "C=CCN1CC[C@]23c4c5ccc(O)c4OC2C(=O)CC[C@@]3(O)[C@H]1C5 (some centres not stated)", "discrete label": "n"}
{"molecule": "C[C@](N)(Cc1ccc(O)c(O)c1)C(=O)O", "discrete label": "n"}

Exercise: Could you check what this test reported for C[C@]12CCC3c4ccc(OS(=O)(=O)O)cc4CCC3C1CCC2=O (some centres not stated) ?
Key: n

---

Task for the reader: assign each of the following compounds its reported normalized growth.
- experiment summary: chemical genetic growth profiling, strain panel (AID 1159580);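 note: tested at 20 µM; growth read once vehicle control cultures reached saturation at 30 °C; 1 = growth at the plate median or of vehicle wells; lower values mean less growth of the strain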
- test settings: S. cerevisiae deletion strains, growth OD, locus YLL001W, strain dnm1, active compounds read low
Among all 5,500 compounds or so, about 2,000 (36%) were called active. About 18% were inconclusive and are not listed. The list shows a part of the results.
Give bare numbers.

Here's what some known entries look like.
{"compound": "OC/C=C/c1ccc(O)c(O)c1", "meas value": 0.989}
{"compound": "CCCCC(CC)CN=C(N)NC(N)=NCCCCCCN=C(N)NC(N)=NCC(CC)CCCC (stereo not drawn)", "meas value": 0.0606}

For each entry beneath this line, provide reported normalized growth.
1. CN(C)CCCO[C@H]1[C@@H](C(O)CO)OC2OC(C)(C)O[C@@H]21 (stereo partly drawn)
2. CS(=O)(=O)OCCCCOS(C)(=O)=O
3. c1ccc2[nH]c(-c3cscn3)nc2c1
4. Nc1ccc(S(=O)(=O)Nc2nccs2)cc1
5. Nc1nccs1
6. Oc1ccc(/C=C/c2cc(O)cc(O)c2)cc1

Key:
1: 0.94; 2: 1.03; 3: 1; 4: 1.02; 5: 0.947; 6: 1.01

---

- experiment summary: chemical genetic growth profiling, strain panel (AID 1159580);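 note: tested at 20 µM; growth read once vehicle control cultures reached saturation at 30 °C; 1 = growth at the plate median or of vehicle wells; lower values mean less growth of the strain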
- test settings: S. cerevisiae deletion strains, growth OD, locus YJL129C, strain trk1, active compounds read low
Screen size: about 5,500 compounds; about 2,000 (36%) were called active. Another 18% or so got no clear call; they are omitted. This is one part of the list.
Task for the reader: assign each of the following molecules its reported normalized growth.
Numbers only.

Here's what some known entries look like.
{"molecule": "CCn1cc(C(=O)O)c(=O)c2cc3c(cc21)OCO3", "measurement type": "normalized growth", "meas value": 0.974}
{"molecule": "CCOP(=S)(OCC)Oc1ccc2c(C)c(Cl)c(=O)oc2c1", "measurement type": "normalized growth", "meas value": 0.942}
{"molecule": "CCn1cc(C(=O)O)c(=O)c2cnc(N3CCNCC3)nc21", "measurement type": "normalized growth", "meas value": 1.04}
{"molecule": "S=c1[nH]c2ccccc2s1", "measurement type": "normalized growth", "meas value": 0.966}
{"molecule": "O=C(O)c1cc(O)c(O)c(O)c1", "measurement type": "normalized growth", "meas value": 1.08}
{"molecule": "NC(=O)N/N=C\\c1ccc([N+](=O)[O-])o1", "measurement type": "normalized growth", "meas value": 1.05}

For each entry beneath this line, provide reported normalized growth.
1. O=C(O)c1cc(=O)c(O)c2c(O)c(O)c(O)cc2c1
2. CC12CCC(CC1)C(C)(C)O2
3. O=C1CN(/N=C\c2ccc([N+](=O)[O-])o2)C(=O)N1
4. CC(=O)O[C@H]1C[C@@H](OC(C)=O)C(C)(C)C2C[C@@H](OC(C)=O)[C@]3(C)C(CC[C@@]4(C)[C@H](c5ccoc5)C(=O)[C@H]5O[C@]543)[C@]21C (stereo partly drawn)
5. Nc1nc(N)c2nc(CNc3ccc(C(=O)NC(CCC(=O)O)C(=O)O)cc3)cnc2n1 (stereo not drawn)

Key:
1. 0.235
2. 0.966
3. 0.968
4. 0.973
5. 0.998

---

- experiment summary: chemical genetic growth profiling, strain panel (AID 1159580);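 note: tested at 20 µM; growth read once vehicle control cultures reached saturation at 30 °C; 1 = growth at the plate median or of vehicle wells; lower values mean less growth of the strain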
- test settings: S. cerevisiae deletion strains, growth OD, locus YML032C, strain rad52, active compounds read low
Hit rate of the full screen: of about 5,500 compounds, about 2,000 (36%) were called active. Not shown: some 18% with an inconclusive outcome. Some of the results follow.
measurement type: normalized growth
One number for each entry.

{"compound": "CCC(CCC(C)C1CCC2C3CC=C4C[C@@H](OC(C)=O)CC[C@]4(C)C3CC[C@]12C)C(C)C (stereo partly specified)", "normalized growth": 1.01}
{"compound": "Nc1c(Br)cc(Br)cc1CNC1CCC(O)CC1 (stereo unspecified)", "normalized growth": 0.996}
{"compound": "CN(C)CCCO[C@H]1[C@@H](C(O)CO)OC2OC(C)(C)O[C@@H]21 (stereo partly specified)", "normalized growth": 0.945}
{"compound": "COc1ccccc1-c1cc(=O)c2cccc(OC)c2o1", "normalized growth": 0.92}
{"compound": "CO[C@@H]1C[C@@H](C[C@H]2CC[C@H](C)[C@H]([C@@H](C)C(=O)O)O2)O[C@]2(O[C@](C)([C@H]3CC[C@@](C)(C4O[C@@H](C5O[C@@](O)(CO)[C@H](C)C[C@@H]5C)C[C@@H]4C)O3)C[C@H]2C)[C@@H]1C (stereo partly specified)", "normalized growth": 0.986}
{"compound": "C[C@@]12C(=O)OC(=O)[C@]1(C)C1CCC2O1", "normalized growth": 0.69}
{"compound": "COc1cc(C(=O)O)cc(OC)c1O", "normalized growth": 0.975}
{"compound": "CC(=O)C1=C(O)C2C3c4c[nH]c5cccc(c45)CC3C(C)(C)N2C1=O (stereo unspecified)", "normalized growth": 1.01}
{"compound": "CCN(CC)CCOC(=O)C(Cc1cccc2ccccc12)CC1CCCO1 (stereo unspecified)", "normalized growth": 1.01}
{"compound": "CC(=O)O[C@H]1CC[C@@]2(C)C(=CCC3C2CC[C@@]2(C)C3CC[C@@H]2C(C)CCCC(C)C)C1 (stereo partly specified)", "normalized growth": 1.02}

For each entry beneath this line, provide reported normalized growth.
1. C=CCN1CC[C@]23c4c5ccc(O)c4OC2C(=O)CC[C@@]3(O)[C@H]1C5 (stereo partly specified)
2. CCOP(=S)(OCC)Oc1ccc2c(C)c(Cl)c(=O)oc2c1
3. O=C(O)c1cc(=O)c2c(OCC(O)COc3cccc4oc(C(=O)O)cc(=O)c34)cccc2o1
4. CC1CC2C(C(O)CC3(C)C2CCC3(O)C(=O)COC(=O)CCC(=O)O)C2(C)C=CC(=O)C=C12 (stereo unspecified)
5. CC12CCC3C(CC=C4CC(O)CCC43C)C1CCC2=O (stereo unspecified)
6. CC(=O)O[C@H]1CC[C@@]2(C)C(=CCC3C2CC[C@]2(C)C(=O)CCC32)C1 (stereo partly specified)
7. CN(Cc1cc(Br)cc(Br)c1N)C1CCCCC1
8. COc1ccccc1-c1cc(=O)c2c(OC)cccc2o1

Key:
1.02
0.979
1.02
1
0.855
0.866
0.986
0.951
